Origin of the recorded values: PubChem BioAssay (NCI)

# Tested on: OVCAR-4 ovarian
# EXPERIMENTAL DETAILS: NCI tumour cell line growth inhibition, 48 h
MEASUREMENT KIND: TGI

# annotated cases, reported TGI shown
CCCCCCCCCCCCCCCCCC(=O)O[C@H](COC(=O)CCCCCCCCCCC)COC(=O)CCCCCCCCCCCCCCC = > 100 µM
O=C1Nc2c(ccc(Cl)c2I)C1=O = 31.6 µM
CN1NC(=Nc2ccccc2)Sc2c1cnn(-c1ccccc1)c2=O = > 100 µM
CC(=O)O[C@H]1CC[C@@]2(C)C(=CC[C@H]3[C@@H]4C[C@H](N5CCCC5)[C@H](OC(C)=O)[C@@]4(C)CC[C@@H]32)C1 = > 100 µM

Kindly review the next compound as well.
Q) Return reported TGI; argument: CCOC(=N)CC(=O)Nc1cccc(C)c1C
A) > 100 µM
